Ref: ChEMBL document CHEMBL2046277

For Serine/threonine-protein kinase B-raf (Homo sapiens, UniProt P15056), measured IC50 is reported for the entries below.
Record the value in µM, omitting the unit from your answer.

So what does the record say about IC50 for "Cc1ccc(NS(=O)(=O)c2ccc3[nH]c4c(C(N)=O)nccc4c3c2)cc1" ? 20.5

Reported IC50 for "COC(CNS(=O)(=O)c1ccc2[nH]c3c(C(N)=O)nccc3c2c1)OC" : what is it? 91.5

Value lookup for IC50; key = "CCCNS(=O)(=O)c1ccc2[nH]c3c(C(N)=O)nccc3c2c1" 28.5

Value lookup for IC50; key = "NC(=O)c1nccc2c1[nH]c1ccc(S(=O)(=O)NCCO)cc12" 23.7

Need IC50, item "NC(=O)c1nccc2c1[nH]c1ccc(S(=O)(=O)NCCCO)cc12" 20.5

Would you mind telling me what IC50 value was observed for "CN(C)CCCNS(=O)(=O)c1ccc2[nH]c3c(C(N)=O)nccc3c2c1" ? 1.62
